# TARGET SYSTEM: T1, 4H2621-AA
# T1 chain: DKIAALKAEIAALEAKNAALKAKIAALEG
# ASSAY NOTES: two-hybrid library CCmax;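 further: natural log of median RNA to DNA barcode read ratio; higher means stronger binding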
# EXPERIMENTAL CONTEXT: mean of both orientations
METRIC NAME: interaction score

> print(dat)
                                     binder        metric.name  result.value
1  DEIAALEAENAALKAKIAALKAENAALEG [4H235-AA]  interaction score        -0.985
2  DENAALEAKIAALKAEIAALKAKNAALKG [4H1360-AA]  interaction score         -1.11
3  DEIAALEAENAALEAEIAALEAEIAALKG [4H130-AA]  interaction score         0.962
4  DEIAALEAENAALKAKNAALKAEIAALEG [4H249-AA]  interaction score         -1.28

P = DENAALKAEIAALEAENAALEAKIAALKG [4H1558-AA]
Q = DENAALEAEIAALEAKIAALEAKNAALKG [4H1064-AA]
# input Hi there! Just curious which has the higher interaction score between P and Q . To answer, give the label that identifies your chosen option.
# output P
(P: 1.29, Q: -1.07)
